Where these numbers come from: the supplement of paper PMC11172423

Exercise: state measured growth for each of the compounds provided.
- Test system: Falciformispora senegalensis CBS197.79
- Protocol Text: growth relative to untreated control; higher = less inhibition, active = 20 or less
- Reported Conditions: 25 µM
Numbers only, in %.

Below, 5 compounds whose answers are already recorded.
| Compound | Measured Result |
| --- | --- |
| NC(=O)c1cccc(CN2Cc3ccccc3OC3(CCN(Cc4c[nH]c5cnccc45)CC3)C2)c1 | 85 |
| CCCCN(CCCC)CCC(O)c1cc2c(Cl)cc(Cl)cc2c2cc(C(F)(F)F)ccc12 (configuration not stated) | 98.2 |
| Cc1nn(C2CCS(=O)(=O)C2)c(C)c1C1Nc2ccccc2C(=O)N1Cc1ccc2c(c1)OCO2 (configuration not stated) | 84.3 |
| CC(C)Nc1ncc2nc(Nc3cc(Cl)cc(C(F)(F)F)c3)n(C3CCNCC3)c2n1 | 90.2 |
| Cn1cc(CN2CCc3c(c(C(=O)NCc4nccs4)nn3Cc3ccccc3)C2)c2ccccc21 | 89.7 |

Give measured growth for every item shown.
1. CC(C)(C)[S@@](=O)N1Cc2cc(C(=O)NCCc3ccncc3)nc(-c3cccc(-c4ccccc4)c3)c2[C@H]1CCO
2. CN(C)CCCN1c2ccccc2Sc2ccc(Cl)cc21
3. Cc1ccc(-c2cc(C(F)(F)F)nn2-c2ccc(S(N)(=O)=O)cc2)cc1
4. CC(C)Nc1cccnc1N1CCN(C(=O)c2cc3cc(NS(C)(=O)=O)ccc3[nH]2)CC1

Response given:
1: 82.6; 2: 22.7; 3: 102; 4: 101

Look at each compound and report its growth.
1. N=C(N)Nc1ccc(C(=O)Oc2ccc3cc(C(=N)N)ccc3c2)cc1
2. C[C@@H](C1CCCCC1)n1c(-c2cc3c(cc2Br)OCO3)nc2cc(C(=O)Nc3ccc(C#N)cc3)ccc21
3. CC(C)(C)NC(=O)[C@@H]1CN(Cc2cccnc2)CCN1C[C@@H](O)C[C@@H](Cc1ccccc1)C(=O)N[C@H]1c2ccccc2C[C@H]1O
4. N#Cc1ccc(-c2n[nH]c3ccc(-c4n[nH]c(CC(F)(F)F)n4)cc23)cc1

Response given:
107
106
105
94

Provide reported growth for each item, in the same order as listed.
1. CC(=O)[C@@]1(O)CC[C@H]2[C@H]3CCC4=CC(=O)CC[C@@]4(C)[C@H]3CC[C@@]21C
2. COC(=O)N[C@H](C(=O)N1CCC[C@H]1c1ncc(-c2ccc(-c3ccc(-c4cnc([C@@H]5CCCN5C(=O)[C@@H](NC(=O)OC)C(C)C)[nH]4)cc3)cc2)[nH]1)C(C)C
3. CCOc1ccccc1NC(=O)Cn1c(=O)n(Cc2ccccc2)c(=O)c2c(C)c(C(=O)N(C)C)sc21
4. O=C(NC1CCCc2c1[nH]c1ccc(Cl)cc21)c1ccccn1 (configuration not stated)
5. CO/C=C(/C(=O)OC)c1ccccc1COc1c(C)c(-c2ccc(C)cc2C)nn1C
6. CCCOc1ccc(C(F)(F)F)cc1NC(=O)c1nc2nccc(C)n2n1
7. CN(C)CCNC(=O)c1ccc(Nc2nccc(-c3ccc(Cl)c(Cl)c3)n2)cc1

Response given:
1. 92.2
2. 114
3. 92.1
4. 107
5. 46.5
6. 91.7
7. 24.5

# per-item lookup of growth; items listed below
1. Nc1nc(C2CC2)cn1CC(O)c1ccc(Cl)cc1Cl (configuration not stated)
2. C=CC[C@@H]1/C=C(\C)C[C@H](C)C[C@H](OC)[C@H]2O[C@@](O)(C(=O)C(=O)N3CCCC[C@H]3C(=O)O[C@H](/C(C)=C/[C@@H]3CC[C@@H](O)[C@@H](OC)C3)[C@H](C)[C@@H](O)CC1=O)[C@H](C)C[C@@H]2OC
3. CC[C@H](Nc1ncnc2[nH]cnc12)c1nc2cccc(F)c2c(=O)n1-c1ccccc1
4. Cn1nc(C(=O)Nc2ccc(F)c(Cl)c2)c2c1-c1ccccc1S(=O)(=O)C2
5. CCOc1ccc(C=C2NCCc3cc(OCC)c(OCC)cc32)cc1OCC

Response given:
1: 86; 2: 103; 3: 98; 4: 99.8; 5: 112

Working through the 2 compounds below one at a time, give growth for each.
1. Cc1c[nH]c(-c2cccc(C(=O)NC3CCC(CCN4CCc5ccc(C#N)cc5CC4)CC3)c2)n1 (configuration not stated)
2. S=C(NCc1ccc2c(c1)OCO2)N1CCN(c2ncnc3c2oc2ccccc23)CC1

Response given:
[74.1, 113]
